Target: AsPC-1 HiBiT-KRASG12D (Homo sapiens, UniProt P01116, G12D)
Construct: insert the HiBiT tag onto the N-terminus of one or more of the endogenous KRAS alleles; endogenous in cells; host or cells: AsPC-1 (ATCC CRL-1682), CRISPR-Cas9 knock-in clone, one tagged allele
Sequence (P01116 1-188 isoform P01116-2 G12D): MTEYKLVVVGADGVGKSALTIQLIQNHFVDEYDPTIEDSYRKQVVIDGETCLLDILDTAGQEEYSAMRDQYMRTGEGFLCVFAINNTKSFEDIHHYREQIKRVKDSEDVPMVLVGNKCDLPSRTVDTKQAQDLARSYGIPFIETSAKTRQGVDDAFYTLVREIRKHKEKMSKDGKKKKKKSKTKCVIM
Assay: HiBiT degradation assay (G12D), AsPC-1 HiBiT-KRASG12D cells
Format: cell-based
Details: AsPC-1 HiBiT-KRASG12D cells, 24 hours treatment, HiBiT luminescence
Recorded DC50 for the following compounds

Examples with answers:
INSERT INTO results (compound, result_type, assay_result) VALUES
  ('Cc1ncsc1-c1ccc([C@H](C)NC(=O)[C@@H]2C[C@@H](O)CN2C(=O)[C@@H](c2cc(OCC3CCN(CCOc4nc(N5CC6CCC(C5)N6)c5cnc(-c6c(OC(F)(F)F)ccc7[nH]ncc67)c(F)c5n4)CC3)no2)C(C)C)cc1 [Compound 47]', 'DC50', '> 3 µM'),
  ('CCc1cccc2cc(O)cc(-c3ncc4c(N5CC6CCC(C5)N6)nc(OC5CCN(CC6CCN(c7cc([C@@H](C(=O)N8C[C@H](O)C[C@H]8C(=O)N[C@@H](C)c8ccc(-c9scnc9C)cc8)C(C)C)on7)CC6)CC5)nc4c3F)c12 [Compound 167]', 'DC50', '1 to 3 µM'),
  ('CCc1cccc2cc(O)cc(-c3ncc4c(N5CC6CCC(C5)N6)nc(OC[C@@]56CCCN5[C@H](COC(=O)N5CC7(C5)CN(c5cc([C@H](C(=O)N8C[C@H](O)C[C@H]8C(=O)N[C@@H](C)c8ccc(-c9scnc9C)cc8)C(C)C)on5)C7)CC6)nc4c3F)c12 [Compound 112]', 'DC50', '< 0.6 µM');

Prompt: Fill in the blank: the reported DC50 of CCc1cccc2cc(O)cc(-c3ncc4c(N5CC6CCC(C5)N6)nc(OC[C@]56CCCN5[C@@H](COC(=O)N(C)Cc5cc([C@@H](C(=O)N7C[C@H](O)C[C@H]7C(=O)N[C@@H](C)c7ccc(-c8scnc8C)cc7)C(C)C)on5)CC6)nc4c3F)c12 [Compound 93] is ____.
Completion: 1 to 3 µM

Prompt: // repeat for CCc1cccc2cc(O)cc(-c3ncc4c(N5CC6CCC(C5)N6)nc(OC[C@@]56CCCN5[C@H](COC(=O)N5CCN(c7cc([C@H](C(=O)N8C[C@H](O)C[C@H]8C(=O)N[C@@H](C)c8ccc(-c9scnc9C)cc8)C(C)C)on7)CC5)CC6)nc4c3F)c12 (stereo in doubt) [Compound 7] and report
Completion: < 0.6 µM

Prompt: // repeat for CCc1cccc2cc(O)cc(-c3ncc4c(N5CC6CCC(C5)N6)nc(OC[C@]56CCCN5[C@H](COC(=O)N5CCN(c7cc([C@@H](C(=O)N8C[C@H](O)C[C@H]8C(=O)N[C@@H](C)c8ccc(-c9scnc9C)cc8)C(C)C)on7)CC5)CC6)nc4c3F)c12 [Compound 87] and report
Completion: 0.6 to 1 µM

Prompt: // repeat for CCc1cccc2cc(O)cc(-c3ncc4c(N5CC6CCC(C5)N6)nc(OCCN5CCC(C)(COc6cc([C@H](C(=O)N7C[C@H](O)C[C@H]7C(=O)N[C@@H](C)c7ccc(-c8scnc8C)cc7)C(C)C)on6)CC5)nc4c3F)c12 [Compound 32] and report
Completion: < 0.6 µM

Prompt: // repeat for C#Cc1c(F)ccc2cc(O)cc(-c3ncc4c(N5CC6CCC(C5)N6)nc(OCCN5CCC(C)(COc6cc([C@H](C(=O)N7C[C@H](O)C[C@H]7C(=O)N[C@@H](C)c7ccc(-c8scnc8C)cc7)C(C)C)on6)CC5)nc4c3F)c12 [Compound 313] and report
Completion: < 0.6 µM

Prompt: // repeat for CCc1cccc2cc(O)cc(-c3ncc4c(N5CC6CCC(C5)N6)nc(OCCN5CCC(F)(CC6CCN(c7cc([C@H](C(=O)N8C[C@H](O)C[C@H]8C(=O)N[C@@H](C)c8ccc(-c9scnc9C)cc8)C(C)C)on7)CC6)CC5)nc4c3F)c12 [Compound 239] and report
Completion: < 0.6 µM

Prompt: // repeat for CCc1cccc2cccc(-c3ncc4c(N5CC6CCC(C5)N6)nc(OC[C@]56CCCN5[C@@H](COC(=O)N5CCN(c7cc([C@H](C(=O)N8C[C@H](O)C[C@H]8C(=O)N[C@@H](C)c8ccc(-c9scnc9C)cc8)C(C)C)on7)CC5)CC6)nc4c3F)c12 [Compound 34] and report
Completion: < 0.6 µM

Prompt: // repeat for C#Cc1c(F)ccc2cc(O)cc(-c3ncc4c(N5CC6CCC(C5)N6)nc(OC[C@]56CCCN5[C@H](COc5cc([C@@H](C(=O)N7C[C@H](O)C[C@H]7C(=O)N[C@@H](C)c7ccc(-c8scnc8C)cc7)C(C)C)on5)CC6)nc4c3F)c12 [Compound 312] and report
Completion: 1 to 3 µM

Prompt: // repeat for CCc1cccc2cc(O)cc(-c3ncc4c(N5CC6CCC(C5)N6)nc(N5CCC(CN6CCC(CC7CN(c8cc([C@@H](C(=O)N9C[C@H](O)C[C@H]9C(=O)N[C@@H](C)c9ccc(-c%10scnc%10C)cc9)C(C)C)on8)C7)CC6)CC5)nc4c3F)c12 [Compound 193] and report
Completion: > 3 µM

Prompt: // repeat for CCc1cccc2cc(O)cc(-c3ncc4c(N5CC6CCC(C5)N6)nc(OCCN5CCC(COCC(=O)N[C@H](C(=O)N6C[C@@H](O)C[C@H]6C(=O)N[C@@H](C)c6ccc(-c7scnc7C)cc6)C(C)(C)C)CC5)nc4c3F)c12 [Compound 10] and report
Completion: > 3 µM

Prompt: // repeat for CCc1cccc2cc(O)cc(-c3ncc4c(N5CC6CCC(C5)N6)nc(OCCN5CCC(CC6CN(c7cc(C(C(=O)N8C[C@H](O)C[C@H]8C(=O)N[C@@H](C)c8ccc(-c9scnc9C)cc8)C(C)C)on7)C6)CC5)nc4c3F)c12 (relative stereo) [Compound 82] and report
Completion: 0.6 to 1 µM

Prompt: // repeat for CCc1cccc2cc(O)cc(-c3ncc4c(N5CC6CCC(C5)N6)nc(OCCN5CCC6(CC5)CN(c5cc([C@H](C(=O)N7C[C@H](O)C[C@H]7C(=O)N[C@@H](C)c7ccc(-c8ccnn8C)cc7)C(C)C)on5)C6)nc4c3F)c12 (relative stereo) [Compound 140] and report
Completion: < 0.6 µM

// data source = patent US20250206732A1
